Measured target: serotonin transporter (SERT) (Rattus norvegicus, UniProt P31652)
Construct: For SERT and NET assays, rat cerebral cortex was homogenized in cold SERT assay buffer; from tissue; host or cells: rat cerebral cortex
Sequence (P31652 whole entry): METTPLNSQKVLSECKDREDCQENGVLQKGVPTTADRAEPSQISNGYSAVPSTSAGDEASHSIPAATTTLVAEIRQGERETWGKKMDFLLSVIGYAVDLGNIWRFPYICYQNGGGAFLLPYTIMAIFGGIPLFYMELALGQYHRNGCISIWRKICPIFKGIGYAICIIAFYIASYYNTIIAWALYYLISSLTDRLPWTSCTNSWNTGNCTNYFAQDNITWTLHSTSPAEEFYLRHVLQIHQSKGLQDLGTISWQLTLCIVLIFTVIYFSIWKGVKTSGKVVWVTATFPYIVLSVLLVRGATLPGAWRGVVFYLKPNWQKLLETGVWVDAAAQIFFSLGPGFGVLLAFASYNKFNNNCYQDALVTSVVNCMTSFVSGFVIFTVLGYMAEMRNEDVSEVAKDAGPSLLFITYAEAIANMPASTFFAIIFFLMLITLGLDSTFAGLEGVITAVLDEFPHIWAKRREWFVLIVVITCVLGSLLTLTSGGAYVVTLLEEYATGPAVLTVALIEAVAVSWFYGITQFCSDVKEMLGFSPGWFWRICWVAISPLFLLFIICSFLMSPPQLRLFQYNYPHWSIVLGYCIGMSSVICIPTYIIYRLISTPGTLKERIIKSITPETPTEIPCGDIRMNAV
Procedure details: Radioligand binding to serotonin transporter, [3H]paroxetine, rat cerebral cortex homogenate
Details: read-out: SERT (Ki)
Measure: Ki (nM)
# unit: nM | format: bare number

[[record]]
compound = "COC(=O)C1C2CCC(CC1c1ccc(-c3cccc(OC)c3)cc1)N2 (centres unmarked)"
data_value = 2.32


Moving on to another compound below.
Item under review: COC(=O)C1C2CCC(CC1c1ccc(-c3cncc(OC)c3)cc1)N2 (centres unmarked) . Reported Ki? 3.91

----------
Recorded pKi, one value per entry.
Measured target: dopamine transporter (DAT) (Rattus norvegicus)
Procedure details: Radioligand binding to dopamine transporter, [3H]GBR-12935, rat corpus striatum homogenate
Remember, pKi is on a log scale: it is -log10 of the molar concentration.

Take a look at these entries with their results.
[[record]]
compound = "COC(=O)C1C2CCC(CC1c1ccc(-c3cccc(OC)c3)cc1)N2 (stereo not shown) [Compound 10]"
data_value = 6.15

[[record]]
compound = "COC(=O)[C@H]1[C@@H](c2ccc(-c3cccs3)cc2)C[C@@H]2CC[C@H]1N2C [Compound 11]"
data_value = 7.28

[[record]]
compound = "COC(=O)[C@H]1[C@@H](c2ccc(-c3ccsc3)cc2)C[C@@H]2CC[C@H]1N2C [Compound 12]"
data_value = 7.92

[[record]]
compound = "COC(=O)C1C2CCC(CC1c1ccc(-c3cncc(OC)c3)cc1)N2 (stereo not shown) [Compound 18]"
data_value = 6.23

[[record]]
compound = "COC(=O)C1C(c2ccc(-c3cccnc3)cc2)CC2CCC1N2C (stereo not shown) [Compound 16]"
data_value = 7.58


Please look up its pKi: COC(=O)[C@H]1[C@@H](c2ccc(-c3nccs3)cc2)C[C@@H]2CC[C@H]1N2C [Compound 14] 6.28

Endpoint output: pKi of COC(=O)C1C(c2ccc(-c3cccc(C4OCCO4)c3)cc2)CC2CCC1N2C (stereo not shown) [Compound 9] . Value? 6.44

----------
# key: entry, value: pKi
Measured target: norepinephrine transporter (NET) (Rattus norvegicus, UniProt Q63380)
Construct: from tissue; host or cells: rat cerebral cortex
Sequence (Q63380 1-617): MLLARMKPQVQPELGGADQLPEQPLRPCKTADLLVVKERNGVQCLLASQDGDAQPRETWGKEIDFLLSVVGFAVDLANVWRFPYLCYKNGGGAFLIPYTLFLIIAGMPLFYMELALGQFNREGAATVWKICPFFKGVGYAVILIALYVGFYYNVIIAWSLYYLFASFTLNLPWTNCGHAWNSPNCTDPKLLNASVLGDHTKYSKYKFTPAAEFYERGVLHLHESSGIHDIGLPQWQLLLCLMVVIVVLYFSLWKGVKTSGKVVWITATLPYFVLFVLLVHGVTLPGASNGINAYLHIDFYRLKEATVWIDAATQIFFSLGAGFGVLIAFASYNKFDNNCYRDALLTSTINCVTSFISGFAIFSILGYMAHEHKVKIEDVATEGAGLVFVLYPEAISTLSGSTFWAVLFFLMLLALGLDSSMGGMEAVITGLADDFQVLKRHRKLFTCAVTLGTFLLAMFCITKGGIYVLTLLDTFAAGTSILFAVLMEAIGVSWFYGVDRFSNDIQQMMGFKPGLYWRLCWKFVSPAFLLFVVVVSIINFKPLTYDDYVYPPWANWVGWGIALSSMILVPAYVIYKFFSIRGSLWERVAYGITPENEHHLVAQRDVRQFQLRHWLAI
Procedure details: Radioligand binding to norepinephrine transporter, [3H]nisoxetine, rat cerebral cortex homogenate
pKi is defined as minus the log10 of a concentration measured in mol/L.

The examples below pair each entry with its known result.
[[record]]
compound = "COC(=O)C1C(c2ccc(-c3ccco3)cc2)CC2CCC1N2C (stereo not shown) [Compound 13]"
data_value = 5.85

[[record]]
compound = "COC(=O)[C@H]1[C@@H](c2ccc(-c3cccs3)cc2)C[C@@H]2CC[C@H]1N2C [Compound 11]"
data_value = 6.80


Consider the record given below.
Fill in the recorded pKi for this compound, with norepinephrine transporter (NET) (Rattus norvegicus, UniProt Q63380) as test system: COC(=O)[C@H]1[C@@H](c2ccc(-c3ccsc3)cc2)C[C@@H]2CC[C@H]1N2C [Compound 12] 6.72

----------
Measured target: serotonin transporter (SERT) (Rattus norvegicus, UniProt P31652)
Construct: For SERT and NET assays, rat cerebral cortex was homogenized in cold SERT assay buffer; from tissue; host or cells: rat cerebral cortex
Procedure details: Radioligand binding to serotonin transporter, [3H]paroxetine, rat cerebral cortex homogenate
Details: rat cerebral cortex membranes; [3H]paroxetine 200 pM; room temperature 120 min; Ki from IC50 by Cheng-Prusoff; read-out: SERT (Ki)
Measure: pKi
Conceptually, pKi converts a concentration in mol/L into minus its log10.

Below, each entry is followed by its recorded pKi result.
[[record]]
compound = "COC(=O)C1C(c2ccc(-c3cccc(OC)c3)cc2)CC2CCC1N2C (centres unmarked)"
data_value = 8.72

[[record]]
compound = "COC(=O)C1C(c2ccc(-c3cccnc3)cc2)CC2CCC1N2C (centres unmarked)"
data_value = 8.45


Give the measured pKi of COC(=O)C1C(c2ccc(-c3cccc([N+](=O)[O-])c3)cc2)CC2CCC1N2C (centres unmarked) . 9.10

What value of pKi has been reported for the following compound? COC(=O)C1C(c2ccc(-c3cnc4ccccc4c3)cc2)CC2CCC1N2C (centres unmarked) 7.70

Bench note: what pKi did COC(=O)C1C(c2ccc(-c3ccc(OC)cc3)cc2)CC2CCC1N2C (centres unmarked) show? 7.49

----------
Measured target: dopamine transporter (DAT) (Rattus norvegicus, UniProt P23977)
Sequence (P23977 whole entry): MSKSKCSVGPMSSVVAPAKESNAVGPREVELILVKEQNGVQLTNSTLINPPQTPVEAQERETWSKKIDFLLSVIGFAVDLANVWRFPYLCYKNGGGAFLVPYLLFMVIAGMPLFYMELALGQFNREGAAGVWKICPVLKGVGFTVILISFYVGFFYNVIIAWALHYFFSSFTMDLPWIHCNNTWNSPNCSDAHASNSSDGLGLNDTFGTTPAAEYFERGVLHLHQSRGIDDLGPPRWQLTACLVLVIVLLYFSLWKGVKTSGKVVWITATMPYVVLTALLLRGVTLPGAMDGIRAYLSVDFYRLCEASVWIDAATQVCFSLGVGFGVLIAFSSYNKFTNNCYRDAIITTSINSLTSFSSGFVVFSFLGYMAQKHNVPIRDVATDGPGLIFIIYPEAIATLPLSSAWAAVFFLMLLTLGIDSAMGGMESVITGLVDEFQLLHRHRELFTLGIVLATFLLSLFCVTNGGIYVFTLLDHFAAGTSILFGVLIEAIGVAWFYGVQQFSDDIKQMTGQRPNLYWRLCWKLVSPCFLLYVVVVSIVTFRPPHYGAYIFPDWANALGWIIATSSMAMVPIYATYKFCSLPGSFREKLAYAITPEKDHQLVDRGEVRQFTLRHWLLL
Procedure details: Radioligand binding to dopamine transporter, [3H]GBR-12935, rat corpus striatum homogenate;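 note: displacement read as filter-bound tritium by liquid scintillation counting, roughly 1 mg wet tissue per tube, IC50 from fitted concentration-inhibition curves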
Details: read-out: DAT (Ki); rat corpus striatum membranes; [3H]GBR-12935 400 pM; on ice 45 min; Ki from IC50 by Cheng-Prusoff
Examples of compounds with documented pKi follow.
pKi field: float, defined as -log10 of concentration (mol/L).

Sample records with pKi:
[[record]]
compound = "COC(=O)C1C(c2ccc(-c3ccccn3)cc2)CC2CCC1N2C (centres unmarked)"
data_value = 7.36

[[record]]
compound = "COC(=O)C1C(c2ccc(-c3ccc([N+](=O)[O-])cc3)cc2)CC2CCC1N2C (centres unmarked)"
data_value = 8.29

[[record]]
compound = "COC(=O)C1C(c2ccc(-c3cncnc3)cc2)CC2CCC1N2C (centres unmarked)"
data_value = 6.46


Which pKi reading was recorded for the compound COC(=O)C1C(c2ccc(-c3ccco3)cc2)CC2CCC1N2C (centres unmarked) ? 8.15

Give its pKi value. Item: COC(=O)C1C(c2ccc(-c3ccc(C(C)=O)cc3)cc2)CC2CCC1N2C (centres unmarked) 7.72

Consider the compound shown here: COC(=O)C1C(c2ccc(-c3cccc(C(C)=O)c3)cc2)CC2CCC1N2C (centres unmarked) What is its recorded pKi? 7.91

----------
Measured target: norepinephrine transporter (NET) (Rattus norvegicus)
Construct: from tissue; host or cells: rat cerebral cortex
Procedure details: Radioligand binding to norepinephrine transporter, [3H]nisoxetine, rat cerebral cortex homogenate
Details: rat cerebral cortex membranes; [3H]nisoxetine 600 pM; on ice 180 min; Ki from IC50 by Cheng-Prusoff; read-out: NET (Ki)
pKi: −log10 of the molar value.
Entries and their measured pKi follow.

Some compounds with recorded pKi:
[[record]]
compound = "COC(=O)C1C(c2ccc(-c3cccc(C4OCCO4)c3)cc2)CC2CCC1N2C (stereo not drawn)"
data_value = "< 4.52"

[[record]]
compound = "COC(=O)C1C(c2ccc(-c3ccccc3[N+](=O)[O-])cc2)CC2CCC1N2C (stereo not drawn)"
data_value = "< 5.52"

[[record]]
compound = "COC(=O)C1C(c2ccc(-c3cccc(C(=O)c4ccccc4)c3)cc2)CC2CCC1N2C (stereo not drawn)"
data_value = "< 5.52"

[[record]]
compound = "COC(=O)C1C(c2ccc(-c3cccc(OC)c3)cc2)CC2CCC1N2C (stereo not drawn)"
data_value = "< 5.52"

[[record]]
compound = "COC(=O)C1C(c2ccc(-c3cncc4ccccc34)cc2)CC2CCC1N2C (stereo not drawn)"
data_value = "< 5.00"


Returns the measured pKi for the input compound. Input: COC(=O)C1C(c2ccc(-c3cnc4ccccc4c3)cc2)CC2CCC1N2C (stereo not drawn) < 5.52

Which pKi value belongs to `COC(=O)[C@H]1[C@@H](c2ccc(-c3cccc(CNC(=O)OC(C)(C)C)c3)cc2)C[C@@H]2CC[C@H]1N2C` ? < 4.52

Suppose we examine the compound COC(=O)C1C(c2ccc(-c3ccccc3OC)cc2)CC2CCC1N2C (stereo not drawn) ; what pKi value has been reported? < 5.00

So what does the record say about pKi for COC(=O)C1C(c2ccc(-c3ccccn3)cc2)CC2CCC1N2C (stereo not drawn) ? ≤ 5.00

Please report the recorded pKi for COC(=O)C1C(c2ccc(-c3cncnc3)cc2)CC2CCC1N2C (stereo not drawn) . < 5.00

Given the compound COC(=O)C1C(c2ccc(-c3ccccc3C(C)=O)cc2)CC2CCC1N2C (stereo not drawn) , what is its reported pKi? < 4.70

# pKi lookup, item COC(=O)C1C(c2ccc(-c3cccc(C(C)=O)c3)cc2)CC2CCC1N2C (stereo not drawn) < 4.30

----------
Measured target: serotonin transporter (SERT) (Rattus norvegicus, UniProt P31652)
Construct: For SERT and NET assays, rat cerebral cortex was homogenized in cold SERT assay buffer; from tissue; host or cells: rat cerebral cortex
Procedure details: Radioligand binding to serotonin transporter, [3H]paroxetine, rat cerebral cortex homogenate
Details: ratio of Ki for NET or DAT to that for SERT (values match DAT/SERT); larger number is more selective for SERT
Tick True if Selectivity for SERT is 3 or greater. Tick False if Selectivity for SERT is less than 3.

These recorded examples may help you get a feel for the data.
[[record]]
compound = "COC(=O)C1C(c2ccc(-c3cccc(C4OCCO4)c3)cc2)CC2CCC1N2C (centres unmarked)"
category_label = "False"

[[record]]
compound = "COC(=O)[C@H]1[C@@H](c2ccc(-c3ccsc3)cc2)C[C@@H]2CC[C@H]1N2C"
category_label = "True"

[[record]]
compound = "COC(=O)C1C2CCC(CC1c1ccc(-c3cccc(OC)c3)cc1)N2 (centres unmarked)"
category_label = "True"

[[record]]
compound = "COC(=O)C1C(c2ccc(-c3ccc(OC)cc3)cc2)CC2CCC1N2C (centres unmarked)"
category_label = "False"

[[record]]
compound = "COC(=O)C1C(c2ccc(-c3ccc([N+](=O)[O-])cc3)cc2)CC2CCC1N2C (centres unmarked)"
category_label = "False"

[[record]]
compound = "COC(=O)[C@H]1[C@@H](c2ccc(-c3nccs3)cc2)C[C@@H]2CC[C@H]1N2C"
category_label = "True"

[[record]]
compound = "COC(=O)C1C(c2ccc(-c3ccccn3)cc2)CC2CCC1N2C (centres unmarked)"
category_label = "False"

[[record]]
compound = "COC(=O)[C@H]1[C@@H](c2ccc(-c3cccc(CNC(=O)OC(C)(C)C)c3)cc2)C[C@@H]2CC[C@H]1N2C"
category_label = "False"

[[record]]
compound = "COC(=O)C1C(c2ccc(-c3cccc(C(=O)c4ccccc4)c3)cc2)CC2CCC1N2C (centres unmarked)"
category_label = "False"

[[record]]
compound = "COC(=O)C1C(c2ccc(-c3ccco3)cc2)CC2CCC1N2C (centres unmarked)"
category_label = "True"


Would you say COC(=O)C1C(c2ccc(-c3cncc4ccccc34)cc2)CC2CCC1N2C (centres unmarked) shows Selectivity for SERT at minimum 3? True

# check: Selectivity for SERT of COC(=O)C1C(c2ccc(-c3cncnc3)cc2)CC2CCC1N2C (centres unmarked) is greater than or equal to 3 True

Check if Selectivity for SERT >= 3 (inclusive). Item: COC(=O)C1C(c2ccc(-c3cccc(OC)c3)cc2)CC2CCC1N2C (centres unmarked) True

Recorded values, source patent US20030013883A1.
